# Assayed System: BRD3 BD2 (Homo sapiens, UniProt Q15059)
# Construct: BRD2 BD2, BRD3 BD2 and BRD4 BD2 (Cisbio); purchased Cisbio
# Sequence (Q15059 306-415 limits assumed): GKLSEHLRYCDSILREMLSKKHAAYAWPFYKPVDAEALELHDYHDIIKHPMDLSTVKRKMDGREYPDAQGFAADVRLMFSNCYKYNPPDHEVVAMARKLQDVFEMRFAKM
# Experiment: Binding assay, BRD3 BD2 to acetylated histone H4 Peptide-Biotin (EPIgeneous Binding Domain Kit B)
# Cond: test compound at 300 nmol/L; read-out: Binding inhibition percentage BRD3 BD2
# Description: Moreover, BRD2 BD2, BRD3 BD2 and BRD4 BD2 (Cisbio), Peptide-Biotin (AnaSpec), and EPIgeneous (registered trademark) Binding Domain Kit B (Cisbio) were used to carry out an assay. […]
Outcome Measure: inhibition at 0.3 µM (%)

Compound	Units	inhibition at 0.3 µM
CCn1c(=O)cc(C2CC2)c2cc(-n3c(-c4ccc(C(F)(F)F)cc4)c[nH]c3=O)ccc21 [Example 268]	%	92
CCn1c(=O)cc(N2CCOCC2)c2cc(-c3cnn(C)c3-c3ccccc3)ccc21 [Example 18]	%	88
CCn1c(=O)cc(C2CCN(C(=O)C(C)C)CC2)c2cc(C(=O)N(C)c3ccc(C)cc3)ccc21 [Example 183]	%	80
CCn1c(=O)cc(C2CC2)c2cc(-c3nccnc3-c3ccccc3)ccc21 [Example 284]	%	92
CCn1c(=O)cc(C2CCC(O)CC2)c2cc(C(=O)N(C)c3ccc(Cl)cc3)ccc21 (centres unmarked) [Example 286]	%	93
CCn1c(=O)cc(C)c2cc(-c3cccnc3-c3ccccc3)ccc21 [Example 291]	%	91
CCn1c(=O)cc(C2CCN(C)CC2)c2cc(C(=O)N3CCCc4ccccc43)ccc21 [Example 11]	%	83
CCn1c(=O)cc(C2CCN(C)CC2)c2cc(C(=O)N(C)c3ccc(C)cc3)ccc21 [Example 14]	%	83
CCn1c(=O)cc(C2CCN(C)CC2)c2cc(C(=O)N(C)c3ccc(C)c(F)c3)ccc21 [Example 292]	%	87
CCn1c(=O)cc(N2CCOCC2)c2cc(-c3nccn3-c3ccccc3)ccc21 [Example 257]	%	91
CCn1c(=O)cc(N2CCOCC2)c2cc(-n3c(-c4ccc(C)cc4)cn(C)c3=O)ccc21 [Example 273]	%	93

* * *

# Assayed System: BRD2 BD2 (Homo sapiens, UniProt P25440)
# Construct: BRD2 BD2, BRD3 BD2 and BRD4 BD2 (Cisbio); purchased Cisbio
# Sequence (P25440 344-453 limits assumed): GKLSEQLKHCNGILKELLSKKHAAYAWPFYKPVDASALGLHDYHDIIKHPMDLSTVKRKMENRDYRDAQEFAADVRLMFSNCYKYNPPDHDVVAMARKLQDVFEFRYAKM
# Experiment: Binding assay, BRD2 BD2 to acetylated histone H4 Peptide-Biotin (EPIgeneous Binding Domain Kit B)
# Cond: test compound at 300 nmol/L; read-out: Binding inhibition percentage BRD2 BD2
Outcome Measure: inhibition at 0.3 µM (%)

Compound	Units	inhibition at 0.3 µM
CCn1c(=O)cc(N2CCOCC2)c2cc(-n3c(-c4ccc(C)cc4)cn(C)c3=O)ccc21 [Example 273]	%	90
Cc1ccc(N(C)C(=O)c2ccc3c(c2)c(C2CCN(C)CC2)cc(=O)n3C)cc1 [Example 235]	%	82
CCn1c(=O)cc(C2CCN(CCO)CC2)c2cc(C(=O)N(C)c3ccc4c(c3)CCCCC4)ccc21 [Example 191]	%	87
CCn1c(=O)cc(N2CCOCC2)c2cc(-n3cc(C)nc3-c3ccccc3)ccc21 [Example 256]	%	86
CCn1c(=O)cc(N2CCOCC2)c2cc(-n3c(-c4ccccc4)cn(C(C)C)c3=O)ccc21 [Example 247]	%	90
CCn1c(=O)cc(N2CCOCC2)c2cc(-c3ccccc3-c3ccccc3)ccc21 [Example 258]	%	81
CCn1c(=O)cc(C2CC2)c2cc(-n3c(C)cc(=O)n3-c3ccccc3)ccc21 [Example 282b]	%	88
CCn1c(=O)cc(N2CCOCC2)c2cc(-n3c(-c4ccccc4)c[nH]c3=O)ccc21 [Example 3]	%	89
CCn1c(=O)cc(N2CCOCC2)c2cc(-n3c(-c4ccccc4)cn(CCN4CCOCC4)c3=O)ccc21 [Example 260]	%	87
CCCn1cc(-c2ccccc2)n(-c2ccc3c(c2)c(N2CCOCC2)cc(=O)n3CC)c1=O [Example 265]	%	89
CCC1C(=O)N(c2ccccc2)N(c2ccc3c(c2)c(C2CC2)cc(=O)n3CC)C1=O (centres unmarked) [Example 281]	%	89
CCn1c(=O)cc(C2CC2)c2cc(-c3nc(C)nn3-c3ccccc3)ccc21 [Example 252]	%	86
CCn1c(=O)cc(C2CC2)c2cc(N(C)C(=O)c3ccccc3)ccc21 [Example 2]	%	89
CCn1c(=O)cc(N2CCOCC2)c2cc(N(C)C(=O)c3ccc(Cl)cc3)ccc21 [Example 250]	%	88
CCN1CCC(c2cc(=O)n(CC)c3ccc(C(=O)N(C)c4ccccc4)cc23)CC1 [Example 8]	%	79
CCn1c(=O)cc(C2CC2)c2cc(-n3c(-c4ccc(C(F)(F)F)cc4)cn(C)c3=O)ccc21 [Example 267]	%	87
CCn1c(=O)cc(C(C)C)c2cc(N(C)C(=O)c3ccc(Cl)cc3)ccc21 [Example 16]	%	87

* * *

# Assayed System: BRD3 BD2 (Homo sapiens)
# Construct: BRD2 BD2, BRD3 BD2 and BRD4 BD2 (Cisbio); purchased Cisbio
# Experiment: Binding assay, BRD3 BD2 to acetylated histone H4 Peptide-Biotin (EPIgeneous Binding Domain Kit B)
# Cond: test compound at 300 nmol/L; read-out: Binding inhibition percentage BRD3 BD2
Outcome Measure: inhibition at 0.3 µM (%)

Mol	Assayed System	inhibition at 0.3 µM / %
CCn1cc(-c2ccccc2)n(-c2ccc3c(c2)c(N2CCOCC2)cc(=O)n3CC)c1=O	BRD3 BD2 (Homo sapiens)	91
CCn1c(=O)cc(N2CCOCC2)c2cc(-n3c(-c4ccccc4)cn(C(C)C)c3=O)ccc21	BRD3 BD2 (Homo sapiens)	91
CCn1c(=O)cc(N2CCOCC2)c2cc(-c3ccccc3-c3ccccc3)ccc21	BRD3 BD2 (Homo sapiens)	83
CCn1c(=O)cc(C(C)C)c2cc(N(C)C(=O)c3ccc(Cl)cc3)ccc21	BRD3 BD2 (Homo sapiens)	92

* * *

# Assayed System: BRD4 BD2 (Homo sapiens, UniProt O60885)
# Construct: BRD2 BD2, BRD3 BD2 and BRD4 BD2 (Cisbio)
# Experiment: Binding assay, BRD4 BD2 to acetylated histone H4 Peptide-Biotin (EPIgeneous Binding Domain Kit B)
# Text: Moreover, BRD2 BD2, BRD3 BD2 and BRD4 BD2 (Cisbio), Peptide-Biotin (AnaSpec), and EPIgeneous (registered trademark) Binding Domain Kit B (Cisbio) were used to carry out an assay. […]
Outcome Measure: IC50 (nM)

Mol	Units	IC50
CCn1c(=O)cc(N2CCOCC2)c2cc(-n3c(-c4ccc(Cl)cc4)cn(C)c3=O)ccc21	nM	7
CCn1c(=O)cc(C2CCN(C(C)=O)CC2)c2cc(C(=O)N(C)c3ccc(C)cc3)ccc21	nM	22
CCn1c(=O)cc(N2CCOCC2)c2cc(-n3c(-c4ccc(Cl)cc4)c[nH]c3=O)ccc21	nM	3

I. CCn1c(=O)cc(C2CCN(C)CC2)c2cc(C(=O)N(C)c3ccc(C)cc3)ccc21
II. CCn1c(=O)cc(C2CCN(C)CC2)c2cc(C(=O)N(C)c3ccc4c(c3)CCC4)ccc21
Enquiry: Hi! Which is lower in terms of IC50, the first one I or the second one II ? Response format: the label of the selected entry.
Return: II

* * *

# Assayed System: BRD3 BD1 (Homo sapiens, UniProt Q15059)
# Construct: BRD2 BD1, BRD3 BD1 and BRD4 BD1 (Cisbio)
# Sequence (Q15059 34-140 limits assumed): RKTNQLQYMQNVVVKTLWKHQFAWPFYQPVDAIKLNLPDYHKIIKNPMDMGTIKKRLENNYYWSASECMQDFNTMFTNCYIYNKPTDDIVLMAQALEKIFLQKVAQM
# Experiment: Binding assay, BRD3 BD1 to acetylated histone H4 Peptide-Biotin (EPIgeneous Binding Domain Kit A)
Outcome Measure: IC50 (nM)

Compound	Recorded Number
CCn1c(=O)cc(C2CCN(C)CC2)c2cc(C(=O)N(C)c3ccc4c(c3)CCC4)ccc21 [Example 17]	3

A. CCn1c(=O)cc(C2CCN(C(C)=O)CC2)c2cc(C(=O)N(C)c3ccc(C)cc3)ccc21 [Example 290]
B. CCn1c(=O)cc(C2CCN(C)CC2)c2cc(C(=O)N(C)c3ccc(C)cc3)ccc21 [Example 14]
C. CCn1c(=O)cc(N2CCOCC2)c2cc(-n3c(-c4ccc(Cl)cc4)cn(C)c3=O)ccc21 [Example 246]
D. CCn1c(=O)cc(N2CCOCC2)c2cc(-n3c(-c4ccc(Cl)cc4)c[nH]c3=O)ccc21 [Example 245]
Enquiry: Order field: IC50 | Direction: descending (largest first) I'd appreciate it if you listed the labels in the requested order.
Return: C, D, A, B
(C: 91 nM, D: 37 nM, A: 15 nM, B: 4 nM)

* * *

# Assayed System: BRD4 BD1 (Homo sapiens)
# Construct: BRD2 BD1, BRD3 BD1 and BRD4 BD1 (Cisbio)
# Experiment: Binding assay, BRD4 BD1 to acetylated histone H4 Peptide-Biotin (EPIgeneous Binding Domain Kit A)
Outcome Measure: IC50 (nM)

Mol	Units	IC50
CCn1c(=O)cc(C2CCN(C(C)=O)CC2)c2cc(C(=O)N(C)c3ccc(C)cc3)ccc21	nM	6

I. CCn1c(=O)cc(N2CCOCC2)c2cc(-n3c(-c4ccc(Cl)cc4)cn(C)c3=O)ccc21
II. CCn1c(=O)cc(C2CCN(C)CC2)c2cc(C(=O)N(C)c3ccc(C)cc3)ccc21
III. CCn1c(=O)cc(N2CCOCC2)c2cc(-n3c(-c4ccc(Cl)cc4)c[nH]c3=O)ccc21
IV. CCn1c(=O)cc(C2CCN(C)CC2)c2cc(C(=O)N(C)c3ccc4c(c3)CCC4)ccc21
Enquiry: Order the records so the highest IC50 appears first and the lowest last. Would you mind listing the labels in the order asked for?
Return: I, III, II, IV
